assay text: Fraction unbound by rapid equilibrium dialysis
Assay type: in vitro ADME
condition label: mouse, mouse brain homogenate
# fraction unbound at 5 μM annotations
Write no unit; give the number alone.

COC(=O)N1CCC[C@H](NS(C)(=O)=O)[C@@H]1CO[C@H]1CC[C@@H](c2ccccc2)CC1 = 0.077

Q. Recorded fraction unbound at 5 μM of CCNC(=O)N1CCC[C@H](NS(C)(=O)=O)[C@@H]1CO[C@H]1CC[C@@H](C(C)C)CC1 , please.
A. 0.121

====

Format: in vivo
condition label: mouse, brain, ip, 10 mg/kg
assay readout: half-life
Hey, just the number and the unit after it is fine.

Q. Recorded half-life of CCNC(=O)N1CCC[C@H](NS(C)(=O)=O)[C@@H]1CO[C@H]1CC[C@@H](C(C)C)CC1 [ARN-776] , please.
A. 38 min

====

Assay type: in vivo
condition label: mouse, plasma, ip, 10 mg/kg
assay readout: Tmax (min)
I only need the number, in min, no unit after it.

Q. Recorded Tmax of CCNC(=O)N1CCC[C@H](NS(C)(=O)=O)[C@@H]1CO[C@H]1CC[C@@H](C(C)C)CC1 , please.
A. 10

====

assay text: Fraction unbound by rapid equilibrium dialysis
Format: in vitro ADME
condition label: mouse, mouse plasma
# fraction unbound at 5 μM annotations
Write no unit; give the number alone.

CCNC(=O)N1CCC[C@H](NS(C)(=O)=O)[C@@H]1CO[C@H]1CC[C@@H](C(C)C)CC1 [ARN-776] = 0.176

// next entry
Q. Recorded fraction unbound at 5 μM of COC(=O)N1CCC[C@H](NS(C)(=O)=O)[C@@H]1CO[C@H]1CC[C@@H](c2ccccc2)CC1 [TAK-925] , please.
A. 0.107

====

Type: in vivo
condition label: mouse, plasma, sc, 10 mg/kg
assay readout: Tmax (min)
I only need the number, in min, no unit after it.

Q. Recorded Tmax of COC(=O)N1CCC[C@H](NS(C)(=O)=O)[C@@H]1CO[C@H]1CC[C@@H](c2ccccc2)CC1 [TAK-925] , please.
A. 10

====

Type: in vivo
condition label: mouse, plasma, sc, 10 mg/kg
assay readout: Cmax (ng/mL)
I only need the number, in ng/mL, no unit after it.

Q. Recorded Cmax of COC(=O)N1CCC[C@H](NS(C)(=O)=O)[C@@H]1CO[C@H]1CC[C@@H](c2ccccc2)CC1 , please.
A. 160

====

Format: in vivo
condition label: mouse, brain, ip, 10 mg/kg
assay readout: Tmax (min)
I only need the number, in min, no unit after it.

Q. Recorded Tmax of CCNC(=O)N1CCC[C@H](NS(C)(=O)=O)[C@@H]1CO[C@H]1CC[C@@H](C(C)C)CC1 [ARN-776] , please.
A. 10

====

Type: in vivo
condition label: mouse, brain, sc, 10 mg/kg
assay readout: Cmax (ng/g)
I only need the number, in ng/g, no unit after it.

Q. Recorded Cmax of COC(=O)N1CCC[C@H](NS(C)(=O)=O)[C@@H]1CO[C@H]1CC[C@@H](c2ccccc2)CC1 , please.
A. 20

====

Type: in vivo
condition label: mouse, plasma, ip, 10 mg/kg
assay readout: AUC(0-t)
Hey, just the number and the unit after it is fine.

Q. Recorded AUC(0-t) of CCNC(=O)N1CCC[C@H](NS(C)(=O)=O)[C@@H]1CO[C@H]1CC[C@@H](C(C)C)CC1 , please.
A. 191 ng·h/mL

====

Format: in vivo
condition label: mouse, plasma, sc, 10 mg/kg
assay readout: AUC(0-t) (ng·h/mL)
I only need the number, in ng·h/mL, no unit after it.

Q. Recorded AUC(0-t) of COC(=O)N1CCC[C@H](NS(C)(=O)=O)[C@@H]1CO[C@H]1CC[C@@H](c2ccccc2)CC1 [TAK-925] , please.
A. 335

====

Format: in vivo
condition label: mouse, brain, sc, 10 mg/kg
assay readout: Tmax
Hey, just the number and the unit after it is fine.

Q. Recorded Tmax of COC(=O)N1CCC[C@H](NS(C)(=O)=O)[C@@H]1CO[C@H]1CC[C@@H](c2ccccc2)CC1 [TAK-925] , please.
A. 10 min

====

Format: in vivo
condition label: mouse, plasma, ip, 10 mg/kg
assay readout: Cmax (ng/mL)
I only need the number, in ng/mL, no unit after it.

Q. Recorded Cmax of CCNC(=O)N1CCC[C@H](NS(C)(=O)=O)[C@@H]1CO[C@H]1CC[C@@H](C(C)C)CC1 [ARN-776] , please.
A. 326

====

Format: in vivo
condition label: mouse, plasma, sc, 10 mg/kg
assay readout: half-life
Hey, just the number and the unit after it is fine.

Q. Recorded half-life of COC(=O)N1CCC[C@H](NS(C)(=O)=O)[C@@H]1CO[C@H]1CC[C@@H](c2ccccc2)CC1 [TAK-925] , please.
A. 36 min
